# Assayed system: activated plasma carboxypeptidase B (Homo sapiens, UniProt Q96IY4)
# Sequence (Q96IY4 115-423): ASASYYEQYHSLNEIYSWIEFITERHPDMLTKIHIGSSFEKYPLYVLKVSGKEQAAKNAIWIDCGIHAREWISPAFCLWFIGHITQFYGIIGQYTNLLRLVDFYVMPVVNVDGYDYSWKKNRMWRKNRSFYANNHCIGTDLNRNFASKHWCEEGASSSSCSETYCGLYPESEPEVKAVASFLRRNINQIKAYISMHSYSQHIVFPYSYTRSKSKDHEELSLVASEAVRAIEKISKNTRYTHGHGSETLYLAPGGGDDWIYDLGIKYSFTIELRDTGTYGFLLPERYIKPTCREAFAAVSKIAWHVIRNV
# Assay text: Assay for activated plasma carboxypeptidase B activity (hippuryl-Arg hydrolysis, colorimetric)
# Condition label: used as positive standard; hippuryl-Arg final 1 mM
Observed property: IC50 (µM)
# value in µM; strip the unit string

Item NC(N)=NCCSC(CC(=O)O)C(=O)O (stereo not shown) ; assay system activated plasma carboxypeptidase B (Homo sapiens, UniProt Q96IY4); IC50 reported as 35
